- Test system: NCI-H226
- assay.name: NCI tumour cell line growth inhibition, 48 h
Active and inactive are the calls of the source. Rule as the data show it: active = GI50 up to about 1.1 µM and inactive = higher.
Classes used: y = active, n = inactive

C=C1C(NC)CCC23CC24CCC2(C)C(C(C)=O)C(O)CC2(C)C4CCC13 (centres undefined) | n
Oc1c(NCn2nc(CCCCCCCCc3nn(CNc4ccc5ccccc5c4O)c(=S)o3)oc2=S)ccc2ccccc12 | n
CCCOC(=O)c1cc(O)c(O)c(O)c1 [PROPYL GALLATE] | n
N#CCCN(CCN(C(=O)Nc1ccccc1)c1ccccc1)C(=O)Nc1ccccc1 | n
CCN(CC)CCSc1nc2c(c(=N)n1-c1ccccc1)c(=S)n(-c1ccccc1)c(=S)n2-c1ccccc1 | n
CCOC(=O)CCC(NC(=O)c1ccc(OCc2ccc3nc(-c4ccccc4)c(Cl)nc3c2)cc1)C(=O)OCC (centres undefined) | n
O=P12N(CCN1c1ccccc1)CCN2c1ccccc1 | n
CO/N=C(/C(=O)OC)c1ccccc1COc1ccccc1C(F)(F)F | n
Nc1c(Cl)ncnc1NCC1(CO)CCC1 | n
COc1cccc2c1C(=O)c1c(O)c3c(c(O)c1C2=O)C[C@@](O)(C(=O)CO)C[C@@H]3OC1CC(N)C(OC)C(C)O1 (some centres undefined) | y
Clc1ccc(Cc2nc3ccccc3nc2-c2cccc(Br)c2)cc1 | n
COC(=O)[C@@H]1C[C@H](c2ccc(OC)c(OC)c2)OC1=O.COC(=O)[C@H]1C[C@H](c2ccc(OC)c(OC)c2)OC1=O | n
CNc1nnc(CNc2ccc(-c3nnc(NC)n3N)cc2)n1N | n
COC(=O)c1cc(C)ccc1CC(Cc1cccc(C)c1)C(=O)OC (centres undefined) | n
CN(C)CS/C(N)=N\C(O)C(Cl)(Cl)Cl (centres undefined) | n
CCOc1ccccc1/N=N/c1c(-c2ccccc2)nn(C(=O)CC(=O)Nc2cccc(Cl)c2)c1-c1ccccc1 | n
CCOC(=O)CNC(=O)C(CSCC1C(=O)Nc2ccccc21)NC(=O)CCC(N)C(=O)OCC (centres undefined) | n
O=C1C(c2ccc(C3=[N+]([O-])c4cc([N+](=O)[O-])ccc4C3=O)cc2)=[N+]([O-])c2cc([N+](=O)[O-])ccc21 | n
C(=C\c1cc[n+](CCc2ccccc2)cc1)/c1ccccc1 | n
CC(NC(=O)/C(C#N)=C/c1ccc2[nH]ccc2c1)c1ccccc1 (centres undefined) | n
CN(C)CCNc1ccc2nnn3c4ccc(Cl)cc4c(=O)c1c23 | n
C=C1CC(c2ccc(OCCCN3C(=O)c4ccccc4C3=O)c(OC)c2)OC1=O (centres undefined) | n
Nc1nc(F)nc2c1ncn2C1OC(CO)C(O)C1O (centres undefined) | n
COC(=O)[C@H](C)N(C)C(=O)[C@H](C)N1[C@@H](c2ccccc2)COC1(C)C | n
CCOC(=O)[C@@H]1ON2O[C@@H](OC3CCCC3(c3ccccc3)c3ccccc3)C[C@H]3OC(=O)[C@@H]1C32 (some centres undefined) | n
COC(=O)CCN(CCC(=O)OC)C1CC1 | n
O=c1onc2n1-c1cc(Cl)ccc1C(=S)N1CSCC21 (centres undefined) | n
Cc1ccc(C)c(NC(=O)C(=O)Nn2c(S)nc3ccccc3c2=O)c1 | n
O=C1Nc2nccnc2C(=O)N2CCC[C@@H]12 | n

----------
- Tested on: NCI-H23
- assay.name: NCI tumour cell line growth inhibition, 48 h
Calls of active or inactive are those of the source. No stated cut-off is given here; in the data, active = GI50 up to about 1.1 µM and inactive = higher.
Classes used: active, inactive

CC1=CCC[C@@](C)(O)[C@@H]2C[C@H]3C(CSc4ccccc4)C(=O)O[C@H]3[C@@H](O2)[C@H](C)CCC1 (stereo not given in full) | inactive
Cc1cc(N(CCC#N)CCC#N)ccc1/C=C(\NC(=O)/C=C/c1ccccc1)NC(=O)Nc1ccc(Cl)cc1 | inactive
COc1ccc(C2=C(Cl)c3cc(OC)c(OC)cc3C2Cl)cc1 (stereo not given) | inactive
O=C1c2cccc3cc([N+](=O)[O-])cc(c23)C(=O)N1CCNCCNCCNCCN1C(=O)c2cccc3cc([N+](=O)[O-])cc(c23)C1=O | active
O=C(Nc1ccccc1)N1N=C(c2ccccc2)C1c1ccccc1 (stereo not given) | inactive
C1#Cc2ccccc2OCCOc2ccccc2C#Cc2ccccc2OCCOc2ccccc21 | inactive
Cc1ccc(-c2n[nH]c(=O)n2N2C(=O)C=CC2=O)cc1 | inactive
CCN(CCCl)CCCNc1c2ccccc2nc2ccc(OC)cc12 | active
Cc1ccc(C(=O)N(Cc2ccccc2)Cc2ccccc2)cc1/N=N/N(C)C | inactive
O=C(Nc1ccccc1[N+](=O)[O-])C(=O)C(C(=O)c1ccccc1-c1ccccc1)C1OC(=O)c2ccccc21 (stereo not given) | inactive
Oc1cc2c(cc1O)-c1[nH]ncc1CC2 | inactive
N#Cc1nc(-c2ccc(-c3nc(C#N)c(N)o3)cc2)oc1N | inactive
NC(=S)N/N=C1\C(=O)Nc2c(Cl)cc(Cl)cc21 | inactive
O=C1CN(C(=O)c2ccccc2)Cc2[nH]c3ccccc3c21 | inactive
COc1c(Cl)ccc(Cl)c1C(=O)NNC(=O)c1c(Cl)c(Cl)c(Cl)c(Cl)c1-c1nc2cc(C(=O)c3ccccc3)ccc2[nH]1 | inactive

----------
- Test system: HCT-116
- assay.name: NCI tumour cell line growth inhibition, 48 h
Activity calls are given as the source filed them. No stated cut-off is given here; in the data, active = GI50 up to about 1.1 µM and inactive = higher.
Classes used: active, inactive

CCN(CC)C(c1ccc(N(C)C)cc1)C(c1ccc(N(C)C)cc1)N(CC)CC (centres undefined) | inactive
CN(C)c1ccc(/C=C/C=c2/c3ccccc3n3c2cc(-c2ccccc2)[n+]3C)cc1 | active
CC[N+]1(C)CCC(O)(c2ccc(Cl)c(Cl)c2)C(C(=O)c2ccc(Cl)c(Cl)c2)C1 (centres undefined) | inactive
C(=C\c1cc[n+](CCc2ccccc2)cc1)/c1ccccc1 | inactive
O=C1Nc2ccccc2Nc2ccncc21 | inactive
Cc1cc(S(=O)(=O)Nc2nc(N)nc(N(C)C)n2)c(SC(C(=O)O)c2ccccc2)cc1Cl (centres undefined) | inactive
Clc1ccc(CCc2ccncn2)c(Cl)c1 | inactive
Cn1c2c3ccccc3nc-2c(O)c2ccccc21 [HYDROXYCRYPTOLEPINE] | inactive
CC(=O)NC1C(OCc2ccccc2)OC(CO)C(O)C1OC(C)C(=O)NC(C(=O)NC(CCC(=O)NCCCNc1ccc([N+](=O)[O-])c2[nH]c3ccccc3c(=O)c12)C(N)=O)C(C)C (centres undefined) | inactive

----------
- Test system: M14
- assay.name: NCI tumour cell line growth inhibition, 48 h
Calls of active or inactive are those of the source. No stated cut-off is given here; in the data, active = GI50 up to about 1.1 µM and inactive = higher.
observation.type: GI50

CC(=O)O[C@H]1C[C@](C)(O)[C@@]23CC([C@@H](OC(=O)C(C)(C)O)[C@@H](OC(C)=O)C2(COC(=O)c2ccccc2)[C@H]1OC(C)=O)C(C)(C)O3 (stereo partly specified) | 55.5 µM (inactive)
CCOC(=O)C1(C/C=C\CBr)CCCC1=O (stereo unspecified) | 21.7 µM (inactive)
C=CCN1CN(c2ccccc2)C2(CCN(CCCC3(c4ccc(F)cc4)OCCO3)CC2)C1=O | 15.5 µM (inactive)
O=C(c1ccc(Cl)cc1)N(C(=O)N1CCC(c2ccccc2)CC1)c1ccccc1 | 18.4 µM (inactive)
CC(Oc1ccc(OCC2CCCCC2)cc1)C(=O)O (stereo unspecified) | > 100 µM (inactive)
Nc1ccc2nc3c(nc2c1)C(=O)c1ccccc1-3 | > 100 µM (inactive)
Clc1ccc(CCc2ccncn2)c(Cl)c1 | > 100 µM (inactive)
COc1ccc([C@H]2C=C(c3cc(F)c(Cl)cc3Cl)N=c3s/c(=C\c4ccc(-c5ccc(Cl)cc5Cl)o4)c(=O)n32)cc1 | 55.3 µM (inactive)
COc1ccc(C(=O)N/N=C/c2c(C)n(C)n(-c3ccccc3)c2=O)cc1 | > 100 µM (inactive)
COC(=O)C(Cc1c[nH]c2ccccc12)NC(=O)c1ccc(-c2ccc(Cl)cc2Cl)o1 (stereo unspecified) | 64 µM (inactive)
CSC1=NN(c2ccccc2)C(=O)C1=C(SC)SC | 37.2 µM (inactive)

----------
- System: SK-MEL-2
- assay.name: NCI tumour cell line growth inhibition, 48 h
Active and inactive are the calls of the source. Cut-off read from the data, not from the text of the source: active = GI50 up to about 1.1 µM and inactive = higher.
Classes used: active, inactive

O=C1C(c2ccc(C3=[N+]([O-])c4cc([N+](=O)[O-])ccc4C3=O)cc2)=[N+]([O-])c2cc([N+](=O)[O-])ccc21 | inactive
CCOC(=O)C(C)(c1cn(C)c2ccccc12)c1cn(C)c2ccccc12 | inactive
COc1cccc(C(=O)C(O)c2cccc(OC)c2OC)c1OC (stereo not given) | inactive
COC1C(O)CC(OC2C(C)OC(Oc3cc(O)c4c(O)c5c(cc4c3)C[C@@H]([C@H](OC)C(=O)[C@@H](O)[C@@H](C)O)[C@H](OC3CC(OC4CC(OC6CC(C)(O)C(O)C(C)O6)C(O)C(C)O4)C(O)C(C)O3)C5=O)CC2OC(C)=O)OC1C (stereo not given in full) | inactive
CCOC(=O)CCC(NC(=O)Cc1ccc(Oc2nc3ccccc3nc2-c2cccs2)cc1)C(=O)OCC (stereo not given) | inactive
COc1cccc2c1C(=O)c1c(O)c3c(c(O)c1C2=O)C[C@@](O)(C(=O)CO)C[C@@H]3OC1CC(N)C(OC)C(C)O1 (stereo not given in full) | active
O=c1onc2n1-c1cc(Cl)ccc1C(=S)N1CSCC21 (stereo not given) | inactive
O=C(CCCNC(=O)OCc1ccccc1)OCc1ccc2c(c1)C(=O)c1ccccc1C2=O | inactive
COC1=CC(=O)c2c(cc(COP(=O)(OCC3OC(n4cc(F)c(=O)[nH]c4=O)CC3O)N(C)CCCCCl)n2C)C1=O (stereo not given) | inactive
CC(C)CCCC(C)[C@H]1CC[C@H]2[C@@H]3CC[C@H]4C[C@@H](CCC=C(c5cc(Cl)c(O)c(C(=O)OC(C)(C)C)c5)c5cc(Cl)c(O)c(C(=O)OC(C)(C)C)c5)CC[C@]4(C)[C@H]3CC[C@]12C (stereo not given in full) | inactive
